Origin of values: patent US6525001B1

Quick reference for Plant response rating, Rape among some compounds
# System: rape (Brassica napus)
# Experiment notes: Test B pre-/postemergence
# Assay type: in vivo
# Set-up: key: 0 is no effect; 10 is complete control
# Condition parameters: Rate 250 g/ha, Postemergence (so in the source)
Quantity measured: Plant response rating, Rape

[[record]]
chemical_string = "Cc1cnc(-c2cccc(C(F)(F)F)c2)nc1Cc1cccc(C#N)c1"
quantity_measured = "Plant response rating, Rape"
result = 0

[[record]]
chemical_string = "Cc1cnc(-c2ccc(Cl)cc2F)nc1Cc1cccc(C#N)c1"
quantity_measured = "Plant response rating, Rape"
result = 0

[[record]]
chemical_string = "COc1cnc(-n2ccc(C(F)(F)F)n2)nc1Cc1cccc(C(F)(F)F)c1"
quantity_measured = "Plant response rating, Rape"
result = 0

[[record]]
chemical_string = "Cc1cnc(-c2ccc(F)cc2F)nc1Cc1cccc(C#N)c1"
quantity_measured = "Plant response rating, Rape"
result = 0

[[record]]
chemical_string = "Cc1cnc(-c2ccc(C#N)cc2)nc1Cc1cccc(C#N)c1"
quantity_measured = "Plant response rating, Rape"
result = 1

[[record]]
chemical_string = "Cc1cnc(-c2ccc(F)cc2F)nc1Cc1cccc(C(F)(F)F)c1"
quantity_measured = "Plant response rating, Rape"
result = 1

[[record]]
chemical_string = "CCc1cnc(-n2cnc(C(F)(F)F)c2)nc1Cc1cccc(OC(F)(F)F)c1"
quantity_measured = "Plant response rating, Rape"
result = 10


---

# Tested on: velvetleaf (Abutilon theophrasti)
# Experiment notes: Test B pre-/postemergence
# Type: in vivo
# Condition parameters: Rate 62 g/ha, Preemergence
Quantity measured: Velvetleaf plant response rating

[[record]]
molecule = "Cc1cnc(-n2cnc(C(F)(F)F)c2)nc1Cc1cccc(C(F)(F)F)c1"
subject_of_test = "velvetleaf (Abutilon theophrasti)"
quantitative_readout = 8

[[record]]
molecule = "Cc1cnc(-c2ccccc2F)nc1Cc1cccc(C(F)(F)F)c1"
subject_of_test = "velvetleaf (Abutilon theophrasti)"
quantitative_readout = 0

[[record]]
molecule = "Cc1cnc(-c2ccc(C(F)(F)F)cc2)nc1Cn1cnc(C(F)(F)F)c1"
subject_of_test = "velvetleaf (Abutilon theophrasti)"
quantitative_readout = 5

[[record]]
molecule = "Cc1cnc(-c2ccc(Cl)cc2F)nc1Cc1cccc(C(F)(F)F)c1"
subject_of_test = "velvetleaf (Abutilon theophrasti)"
quantitative_readout = 0

[[record]]
molecule = "COc1cnc(-c2ccc(C(F)(F)F)cc2)nc1Cc1cccc(C(F)(F)F)c1"
subject_of_test = "velvetleaf (Abutilon theophrasti)"
quantitative_readout = 1

[[record]]
molecule = "Cc1cnc(-n2ccc(C(F)(F)F)n2)nc1Cn1ccc(C(F)(F)F)n1"
subject_of_test = "velvetleaf (Abutilon theophrasti)"
quantitative_readout = 10

[[record]]
molecule = "CCc1cnc(-c2ccc(C(F)(F)F)cc2)nc1Cc1cccc(C(F)(F)F)c1"
subject_of_test = "velvetleaf (Abutilon theophrasti)"
quantitative_readout = 8

[[record]]
molecule = "COC(c1cccc(C(F)(F)F)c1)c1nc(-c2ccc(C(F)(F)F)cc2)ncc1C (racemic)"
subject_of_test = "velvetleaf (Abutilon theophrasti)"
quantitative_readout = 0


---

# Test system: pigweed (Amaranthus retroflexus)
# Experiment notes: Test B pre-/postemergence
# Type: in vivo
# Design: key: 0 is no effect; 10 is complete control
# Condition parameters: Rate 125 g/ha, Preemergence
Quantity measured: Plant response rating, Redroot pigweed

[[record]]
molecule = "Cc1cnc(-c2ccc(C(F)(F)F)cc2)nc1C(=O)c1ccc(C(F)(F)F)cc1 [Compound 74]"
quantitative_readout = 0

[[record]]
molecule = "Cc1cnc(-n2ccc(C(F)(F)C(F)(F)F)n2)nc1C(=O)c1cccc(C(F)(F)F)c1 [Compound 68]"
quantitative_readout = 9

[[record]]
molecule = "Cc1cnc(-c2ccc(C(F)(F)F)cc2)nc1C(=O)c1cccc(C(F)(F)F)c1 [Compound 73]"
quantitative_readout = 10

[[record]]
molecule = "Cc1cnc(-n2ccc(C(F)(F)F)n2)nc1Cn1ccc(C(F)(F)F)n1 [Compound 52]"
quantitative_readout = 10

[[record]]
molecule = "O=C(c1cccc(C(F)(F)F)c1)c1ccnc(-c2ccc(C(F)(F)F)cc2)n1 [Compound 77]"
quantitative_readout = 0

[[record]]
molecule = "Cc1cnc(-n2ccc(C(F)(F)C(F)(F)F)n2)nc1C(=O)c1cccc(OC(F)(F)F)c1 [Compound 62]"
quantitative_readout = 9

[[record]]
molecule = "CCc1cnc(-n2cnc(C(F)(F)F)c2)nc1C(=O)c1cccc(OC(F)(F)F)c1 [Compound 71]"
quantitative_readout = 8

[[record]]
molecule = "Cc1cnc(-n2ccc(C(F)(F)F)n2)nc1C(=O)c1ccc(C(F)(F)F)cc1 [Compound 65]"
quantitative_readout = 0


---

# reported Wild oats plant response rating; entries follow
# System: wild oat (Avena fatua)
# Experiment notes: Test B pre-/postemergence
# Assay type: in vivo
# Condition parameters: Rate 125 g/ha, Postemergence
Quantity measured: Wild oats plant response rating

[[record]]
chemical_string = "Cc1cnc(-n2ccc(C(F)(F)F)n2)nc1Cn1ccc(C(F)(F)F)n1"
quantity_measured = "Wild oats plant response rating"
quantitative_readout = 8

[[record]]
chemical_string = "Cc1cnc(-n2cnc(C(F)(F)F)c2)nc1C(=O)c1cccc(C(F)(F)F)c1"
quantity_measured = "Wild oats plant response rating"
quantitative_readout = 3

[[record]]
chemical_string = "Cc1cnc(-c2ccc(F)c(Cl)c2)nc1Cc1cccc(C#N)c1"
quantity_measured = "Wild oats plant response rating"
quantitative_readout = 0

[[record]]
chemical_string = "Cc1cnc(-c2ccc(C(F)(F)F)cc2)nc1Cn1ccc(C#N)n1"
quantity_measured = "Wild oats plant response rating"
quantitative_readout = 1

[[record]]
chemical_string = "Cc1cnc(-n2ccc(C(F)(F)C(F)(F)F)n2)nc1C(=O)c1cccc(OC(F)(F)F)c1"
quantity_measured = "Wild oats plant response rating"
quantitative_readout = 1

[[record]]
chemical_string = "Cc1cnc(-c2ccc(F)cc2F)nc1Cc1cccc(C#N)c1"
quantity_measured = "Wild oats plant response rating"
quantitative_readout = 1

[[record]]
chemical_string = "Cc1cnc(-c2ccc(C(F)(F)F)cc2)nc1Cn1cc(Br)cn1"
quantity_measured = "Wild oats plant response rating"
quantitative_readout = 2

[[record]]
chemical_string = "Cc1cnc(-c2ccc(C(F)(F)F)cc2)nc1C(=O)c1cccc(C(F)(F)F)c1"
quantity_measured = "Wild oats plant response rating"
quantitative_readout = 7

[[record]]
chemical_string = "Cc1cnc(-c2ccc(C#N)cc2)nc1Cc1cccc(C#N)c1"
quantity_measured = "Wild oats plant response rating"
quantitative_readout = 1


---

# Tested on: goosegrass (Eleusine indica)
# Experiment notes: Test E pre-/postemergence/post directed
# Format: in vivo
# Set-up: key: 0 is no effect; 100 is complete control
# Condition parameters: PREEMERGENCE, Rate 125 g/ha
Quantity measured: Plant response rating, Goosegrass

[[record]]
chemical_string = "Cc1cnc(-n2cnc(C(F)(F)F)n2)nc1C(=O)c1cccc(C(F)(F)F)c1"
quantity_measured = "Plant response rating, Goosegrass"
quantitative_readout = 100

[[record]]
chemical_string = "Cc1cnc(-n2ccc(C(F)(F)F)n2)nc1Cc1cccc(C(F)(F)F)c1"
quantity_measured = "Plant response rating, Goosegrass"
quantitative_readout = 100

[[record]]
chemical_string = "Cc1cnc(-c2ccc(C(F)(F)F)cc2)nc1Cc1cccc(OC(F)(F)F)c1"
quantity_measured = "Plant response rating, Goosegrass"
quantitative_readout = 98

[[record]]
chemical_string = "Cc1cnc(-c2ccc(C(F)(F)F)cc2)nc1Cc1cccc(C(F)(F)F)c1"
quantity_measured = "Plant response rating, Goosegrass"
quantitative_readout = 100

[[record]]
chemical_string = "Cc1cnc(-n2ccc(C(F)(F)F)n2)nc1Cn1ccc(C(F)(F)F)n1"
quantity_measured = "Plant response rating, Goosegrass"
quantitative_readout = 100


---

# Tested on: velvetleaf (Abutilon theophrasti)
# Experiment notes: Test B pre-/postemergence
# Type: in vivo
# Condition parameters: Rate 125 g/ha, Preemergence
Quantity measured: Plant response rating, Velvetleaf

[[record]]
chemical_string = "Cc1cnc(-n2cnc(C(F)(F)F)n2)nc1C(=O)c1cccc(C(F)(F)F)c1"
quantity_measured = "Plant response rating, Velvetleaf"
quantitative_readout = 9

[[record]]
chemical_string = "Cc1cnc(-c2ccc(Cl)c(Cl)c2)nc1Cc1cccc(C(F)(F)F)c1"
quantity_measured = "Plant response rating, Velvetleaf"
quantitative_readout = 0

[[record]]
chemical_string = "Cc1cnc(-c2cccc(C(F)(F)F)c2)nc1Cc1cccc(C#N)c1"
quantity_measured = "Plant response rating, Velvetleaf"
quantitative_readout = 0

[[record]]
chemical_string = "Cc1cnc(-c2ccc(Cl)cc2)nc1Cc1cccc(C#N)c1"
quantity_measured = "Plant response rating, Velvetleaf"
quantitative_readout = 0

[[record]]
chemical_string = "COc1cnc(-n2ccc(C(F)(F)F)n2)nc1Cc1cccc(C(F)(F)F)c1"
quantity_measured = "Plant response rating, Velvetleaf"
quantitative_readout = 0

[[record]]
chemical_string = "Cc1cnc(-c2ccc(C(F)(F)F)cc2)nc1Cn1ccc(C#N)n1"
quantity_measured = "Plant response rating, Velvetleaf"
quantitative_readout = 2

[[record]]
chemical_string = "CCc1cnc(-n2cnc(C(F)(F)F)c2)nc1Cc1cccc(OC(F)(F)F)c1"
quantity_measured = "Plant response rating, Velvetleaf"
quantitative_readout = 8

[[record]]
chemical_string = "Cc1cnc(-c2ccc(Cl)cc2F)nc1Cc1cccc(C#N)c1"
quantity_measured = "Plant response rating, Velvetleaf"
quantitative_readout = 0

[[record]]
chemical_string = "Cc1cnc(-c2ccc(C(F)(F)F)cc2)nc1C(=O)c1cccc(OC(F)(F)F)c1"
quantity_measured = "Plant response rating, Velvetleaf"
quantitative_readout = 8

[[record]]
chemical_string = "Cc1cnc(-n2ccc(C(F)(F)F)n2)nc1C(=O)c1cccc(OC(F)(F)F)c1"
quantity_measured = "Plant response rating, Velvetleaf"
quantitative_readout = 4

[[record]]
chemical_string = "COc1cnc(-n2ccc(C(F)(F)F)n2)nc1C(=O)c1cccc(C(F)(F)F)c1"
quantity_measured = "Plant response rating, Velvetleaf"
quantitative_readout = 1

[[record]]
chemical_string = "CCc1cnc(-n2cnc(C(F)(F)F)n2)nc1Cc1cccc(OC(F)(F)F)c1"
quantity_measured = "Plant response rating, Velvetleaf"
quantitative_readout = 7

[[record]]
chemical_string = "Cc1cnc(-n2cnc(C(F)(F)F)n2)nc1C(=O)c1cccc(OC(F)(F)F)c1"
quantity_measured = "Plant response rating, Velvetleaf"
quantitative_readout = 6

[[record]]
chemical_string = "CCc1cnc(-n2ccc(C(F)(F)F)n2)nc1C(=O)c1cccc(C(F)(F)F)c1"
quantity_measured = "Plant response rating, Velvetleaf"
quantitative_readout = 8

[[record]]
chemical_string = "Cc1cnc(-c2ccc(C#N)cc2)nc1Cc1cccc(C(F)(F)F)c1"
quantity_measured = "Plant response rating, Velvetleaf"
quantitative_readout = 2

[[record]]
chemical_string = "O=C(c1cccc(C(F)(F)F)c1)c1ccnc(-n2ccc(C(F)(F)F)n2)n1"
quantity_measured = "Plant response rating, Velvetleaf"
quantitative_readout = 0

[[record]]
chemical_string = "Cc1cnc(-c2ccc(Cl)cc2F)nc1Cc1cccc(C(F)(F)F)c1"
quantity_measured = "Plant response rating, Velvetleaf"
quantitative_readout = 0

[[record]]
chemical_string = "Cc1cnc(-c2ccc(C(F)(F)F)cc2)nc1C(=O)c1ccc(C(F)(F)F)cc1"
quantity_measured = "Plant response rating, Velvetleaf"
quantitative_readout = 0

[[record]]
chemical_string = "O=C(c1cccc(C(F)(F)F)c1)c1ccnc(-c2ccc(F)cc2F)n1"
quantity_measured = "Plant response rating, Velvetleaf"
quantitative_readout = 0

[[record]]
chemical_string = "Cc1cnc(-n2cnc(C(F)(F)F)c2)nc1C(=O)c1cccc(OC(F)(F)F)c1"
quantity_measured = "Plant response rating, Velvetleaf"
quantitative_readout = 2

